tested on: OVCAR-8 ovarian; assay: NCI-60 one-dose screen, 48 h (100 = growth as untreated, 0 = no growth, -100 = all killed); conditions: 10 µM unless noted
About 83,000 compounds went through this panel and 20% of them were active in at least one assay; those are over-represented in the sample as a whole. Calls of active or inactive are those of the source. The calls were made as follows: active = growth percent below 10; inactive = the rest.
metric name: growth

Consider the reported growth for these molecules:
molecule	measured value
COc1cc(C=Nc2cccc(C(=O)O)c2)ccc1N(CCCl)CCCl	95.2% (inactive)
COc1cc(/C=C\c2cc(OC)c(OC)c(OC)c2)cc(N/C=C\C(=O)c2cc(OC)c(OC)c(OC)c2)c1OC	41.2% (inactive)
CCOC(=S)S[C@H]1C[C@@H]2[C@H](CC[C@]3(C)C(=O)CC[C@@H]23)[C@@]2(C)CCC(=O)C=C12	100% (inactive)
C=CCCCCCCCCC(=O)[O-].C=CCCCCCCCCC(=O)[O-].[Zn+2]	96.6% (inactive)
O=C(CC1(O)C(=O)N(Cc2ccccc2)c2ccc(Br)cc21)c1ccc(C(=O)NCC2CCC3(CC2)OOC2(CCCCC2)OO3)cc1 (stereo not given)	-40.9% (active)
CN(C)C(=O)Oc1ccccc1	102% (inactive)
COc1cc(/C=C/[N+](=O)[O-])c([N+](=O)[O-])cc1OC	17% (inactive)
COC1=CC(=O)O[C@@H](/C=C/c2ccc3c(c2)OCO3)C1	99.3% (inactive)
CC1=C2[C@@H](CC1)[C@]1(C)O[C@@](C(C)C)(C[C@H]1O)[C@H]2OC(=O)C1CC1c1ccccc1 (stereo not given in full)	71.8% (inactive)
O=C(Nc1ccc([As]=[As]c2ccc(NC(=O)c3ccccc3)cc2)cc1)c1ccccc1 (stereo not given)	-82.1% (active)

Challenge: For Cc1ccc(N2COOC3(OOC2)C2CC4CC(C2)CC3C4)cc1 , what is its reported growth?
Response given: 99% (inactive)

Challenge: For COc1cc2c(cc1OCCCCCn1c(-c3ccco3)nc3ccccc31)N=C[C@@H]1CCCN1C2=O , what is its reported growth?
Response given: 18.6% (inactive)

---

Listed here: items and their measured growth.
tested on: RXF 393 renal; experiment: NCI-60 one-dose screen, 48 h (100 = growth as untreated, 0 = no growth, -100 = all killed); details: 10 µM unless noted
Compounds without any hit were thinned out: in the full panel of roughly 83,000, 20% have a hit. The source made the active and inactive calls. The calls were made as follows: active = growth percent below 10; inactive = the rest.

Consider the reported growth for these compounds:
compound	target	growth
CC(=O)[C@H]1CC[C@H]2[C@@H]3CC[C@H]4C[C@H](N)CC[C@]4(C)[C@H]3CC[C@]12C	RXF 393 renal	66.8% (inactive)
COC(=O)[C@H](Cc1ccccc1)NC(=O)c1csc([C@@H](C[C@H](C(C)C)N(C)C(=O)[C@@H](NC(=O)[C@H]2CCCN2C)C2CC2)OC(C)=O)n1	RXF 393 renal	23.3% (inactive)
O=C(O)c1c(Cl)n(Cc2ccc(O)cc2)c2ccc(O)cc12	RXF 393 renal	46.6% (inactive)

Challenge: For [Cl][Hg][c]1cc[c]([Hg][Cl])o1 , what is its reported growth?
Response given: 62.1% (inactive)

Challenge: For OCCNC(Cc1ccccc1)c1ccc2c(c1)OCO2 (stereo not given) , what is its reported growth?
Response given: 109% (inactive)

Challenge: For CCOP(=O)(Nc1ccc2c(c1)/C(=N/NC(N)=S)c1ccccc1-2)OCC , what is its reported growth?
Response given: 90.1% (inactive)

Challenge: For CCC1(C(C)C)C(=O)NC(=S)NC1=O , what is its reported growth?
Response given: 94.8% (inactive)

Challenge: For COC(=O)[C@@H](C)C[C@H](Cc1ccccc1)NC(=O)c1nc([C@@H](C[C@H](C(C)C)N(C)C(=O)[C@@H](NC(=O)[C@H]2CCCCN2C)C(C)C)OC(C)=O)sc1C , what is its reported growth?
Response given: 44.4% (inactive)

Challenge: For Clc1cccc(NCOOC2(OOCNc3cccc(Cl)c3)CCCCC2)c1 , what is its reported growth?
Response given: 108% (inactive)

Challenge: For COc1cc(NC(C)CCCNC2CN3CCC2CC3)c2ncccc2c1 (stereo not given) , what is its reported growth?
Response given: 66.1% (inactive)

Challenge: For CCN1C(=O)C(=C/C=C/c2ccccc2)C(=O)N(CC)C1=O , what is its reported growth?
Response given: 109% (inactive)

Challenge: For C[C@]12CC[C@H]3[C@@H](CC[C@]4(O)C[C@@H](O[C@@H]5O[C@H](CO)[C@@H](O[C@@H]6OC[C@@H](O)[C@H](O)[C@H]6O)[C@H](O)[C@H]5O)CC[C@]34C=O)[C@@]1(O)CC[C@@H]2C1=CC(=O)OC1 , what is its reported growth?
Response given: -19.4% (active)

Challenge: For COC(=O)[C@@H](C)C[C@H](Cc1ccccc1)NC(=O)c1csc([C@@H](C[C@H](C(C)C)N(C)C(=O)C2(NC(=O)[C@H]3CCCCN3C)CCC2)OC(C)=O)n1 , what is its reported growth?
Response given: 82.9% (inactive)

Challenge: For COc1cc(/C=C/[N+](=O)[O-])c([N+](=O)[O-])cc1OC , what is its reported growth?
Response given: -92.9% (active)

Challenge: For Nc1ncnc2n[nH]nc12 , what is its reported growth?
Response given: 75.8% (inactive)

Challenge: For CCOC(=O)[C@@H](C)C[C@H](Cc1ccccc1)NC(=O)c1csc([C@@H](C[C@H](C(C)C)N(C)C(=O)[C@H](CCC(C)C)NC(=O)[C@H]2CCCCN2C)OC(C)=O)n1 , what is its reported growth?
Response given: 12.6% (inactive)

Challenge: For Clc1cccc(N2COOC3(OOC2)C2CC4CC(C2)CC3C4)c1 , what is its reported growth?
Response given: 92.1% (inactive)

Challenge: For CN1C(=O)N[C@H]2[C@@H]3NC(=O)c4ccc(Br)n4[C@@H]3C[C@]21O , what is its reported growth?
Response given: -27.5% (active)

Challenge: For COC(=O)C12CC(NC(=O)c3csc([C@@H](C[C@H](C(C)C)N(C)C(=O)[C@@H](NC(=O)[C@H]4CCCCN4C)C4CC4)OC(C)=O)n3)(C1)C2 , what is its reported growth?
Response given: 14.5% (inactive)

Challenge: For CC1(C)CN1P(=O)(N1CC1(C)C)N1CC1(C)C (stereo not given) , what is its reported growth?
Response given: 119% (inactive)
